# Experimental details: Antiproliferative activity against human PC-9ER cells after 72 hrs by CellTiter-Glo assay
# Assay type: functional, cell-based
Parameter: pIC50
For clarity, pIC50 is expressed as the negative log10 of concentration in mol/L.

Smiles record	pIC50
O=C(Nc1cccc(-c2cnc3c(NC(=O)c4cc(Cl)cc(Cl)c4)nccn23)c1)c1ccc(Cl)c(C(F)(F)F)c1	5.44

Please report pIC50 for the following molecule: `O=C(Nc1cccc(-c2cnc3c(NC(=O)c4cc(Cl)cc(Cl)c4)nccn23)c1)Nc1ccc(F)cc1F`
5.59

Return value of pIC50 for input `O=C(Nc1cccc(-c2cnc3c(NC(=O)c4cc(C(F)(F)F)cc(C(F)(F)F)c4)nccn23)c1)Nc1ccc(Cl)c(C(F)(F)F)c1` , no commentary.
4.84

Give recorded pIC50. `O=C(Nc1cccc(-c2cnc3c(NC(=O)c4cc(Cl)cc(Cl)c4)nccn23)c1)Nc1ccc(Cl)c(C(F)(F)F)c1`
5.10

* * *

# Tested on: NCI-H358
# Experimental details: Antiproliferative activity against human NCI-H358 cells after 72 hrs by CellTiter-Glo assay
# Assay type: functional, cell-based
# Condition set: NCI-H358, 72 h
Measured pIC50, listed per entry for reference.
// scale note: pIC50 = -log10(conc_M); give the bare number

// solved cases for pIC50 follow
Smiles record	Assayed target	pIC50
O=C(Nc1cccc(-c2cnc3c(NC(=O)c4cc(Cl)cc(Cl)c4)nccn23)c1)Nc1ccc(Cl)c(C(F)(F)F)c1	NCI-H358	5.07
O=C(Nc1cccc(-c2cnc3c(NC(=O)c4cc(Cl)cc(Cl)c4)nccn23)c1)Nc1ccc(F)cc1F	NCI-H358	5.38
O=C(Nc1cccc(-c2cnc3c(NC(=O)c4cc(C(F)(F)F)cc(C(F)(F)F)c4)nccn23)c1)Nc1ccc(Cl)c(C(F)(F)F)c1	NCI-H358	5.12

Specify reported pIC50 for the molecule shown: `O=C(Nc1cccc(-c2cnc3c(NC(=O)c4cc(Cl)cc(Cl)c4)nccn23)c1)c1ccc(Cl)c(C(F)(F)F)c1`
5.38

* * *

# Assayed target: Serine/threonine-protein kinase B-raf (Homo sapiens, UniProt P15056, V600E)
# Sequence (P15056 2-766 V600E limits assumed): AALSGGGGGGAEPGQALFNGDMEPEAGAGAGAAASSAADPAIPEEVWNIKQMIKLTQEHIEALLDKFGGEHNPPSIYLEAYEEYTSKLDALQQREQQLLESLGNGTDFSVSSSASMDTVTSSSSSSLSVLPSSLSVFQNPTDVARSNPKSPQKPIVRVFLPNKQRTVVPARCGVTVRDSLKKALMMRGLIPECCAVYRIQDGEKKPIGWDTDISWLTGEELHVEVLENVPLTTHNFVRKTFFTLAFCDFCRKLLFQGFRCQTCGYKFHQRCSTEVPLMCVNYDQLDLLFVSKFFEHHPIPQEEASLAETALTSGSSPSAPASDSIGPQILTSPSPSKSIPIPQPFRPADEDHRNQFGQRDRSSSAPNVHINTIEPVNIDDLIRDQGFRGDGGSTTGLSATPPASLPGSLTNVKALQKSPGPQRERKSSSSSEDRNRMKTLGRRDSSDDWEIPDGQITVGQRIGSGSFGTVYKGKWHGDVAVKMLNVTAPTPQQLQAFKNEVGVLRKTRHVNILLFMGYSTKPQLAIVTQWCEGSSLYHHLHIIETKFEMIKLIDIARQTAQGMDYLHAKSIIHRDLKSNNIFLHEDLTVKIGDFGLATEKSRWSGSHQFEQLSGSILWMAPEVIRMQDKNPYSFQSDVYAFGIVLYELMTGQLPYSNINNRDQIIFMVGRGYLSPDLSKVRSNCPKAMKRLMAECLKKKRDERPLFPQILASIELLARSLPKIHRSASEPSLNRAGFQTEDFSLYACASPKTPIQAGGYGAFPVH
# Experimental details: Inhibition of B-Raf V600E mutant (unknown origin) using MEK1 K97M as substrate preincubated for 90 mins followed by substrate addition measured after 1 hr by fluorescence polarization assay
pIC50: −log10 of the molar value.
Entries and their pIC50 values follow.

Smiles record	pIC50
O=C(Nc1cccc(-c2cnc3c(NC(=O)c4ccc(F)c(C(F)(F)F)c4)nccn23)c1)Nc1ccc(Cl)c(C(F)(F)F)c1	5.30
O=C(Nc1cccc(-c2cnc3c(NC(=O)c4cc(Cl)cc(Cl)c4)nccn23)c1)Nc1ccc(Cl)c(C(F)(F)F)c1	< 4.90

Note pIC50 for the molecule shown: `O=C(Nc1cccc(-c2cnc3c(NC(=O)c4cc(C(F)(F)F)cc(C(F)(F)F)c4)nccn23)c1)Nc1ccc(Cl)c(C(F)(F)F)c1`
< 4.90

Give me measured pIC50, please, for this molecule: `O=C(Nc1cccc(-c2cnc3c(NC(=O)c4cc(Cl)cc(Cl)c4)nccn23)c1)c1ccc(Cl)c(C(F)(F)F)c1`
< 4.90

Answer with the recorded pIC50 of `O=C(Nc1cccc(-c2cnc3c(NC(=O)c4cc(Cl)cc(Cl)c4)nccn23)c1)Nc1ccc(F)cc1F` only.
< 4.90
